# experimental_system: human GPR40 (Homo sapiens, UniProt O14842)
# Sequence (O14842 whole entry): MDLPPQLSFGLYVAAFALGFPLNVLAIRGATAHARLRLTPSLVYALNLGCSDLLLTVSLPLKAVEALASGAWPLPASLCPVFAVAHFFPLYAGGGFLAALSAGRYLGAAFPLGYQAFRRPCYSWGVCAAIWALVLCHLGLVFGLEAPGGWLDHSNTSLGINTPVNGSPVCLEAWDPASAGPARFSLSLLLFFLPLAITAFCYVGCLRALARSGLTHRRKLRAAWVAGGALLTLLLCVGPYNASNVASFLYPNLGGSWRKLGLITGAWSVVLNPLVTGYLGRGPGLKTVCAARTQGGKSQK
# experiment_description: FLIPR intracellular calcium response in HEK-293 cells transiently expressing GPR40
# Type: cell-based
# Design: expressed in transfected cells; host or cells: HEK-293 (transient)
# measurement_context: FLIPR, GPR40 stimulation; second of up to 3 experiments; read-out: Mean pEC50 (converted)
Below, each of the compounds is paired with its reported EC50 value.

>  <compound>
CCCCCCCCCCCCCCCCC(=O)O

>  <experimental_system>
human GPR40 (Homo sapiens, UniProt O14842)

>  <EC50 (µM)>
10.2

$$$$
>  <compound>
CCC=CCC=CCC=CCC=CCC=CC/C=C\CCC(=O)O [cis-4,7,10,13,16,19-Docosahexaenoic acid]

>  <experimental_system>
human GPR40 (Homo sapiens, UniProt O14842)

>  <EC50 (µM)>
2.95

$$$$
>  <compound>
CCCCCCCCCCCC(=O)O

>  <experimental_system>
human GPR40 (Homo sapiens, UniProt O14842)

>  <EC50 (µM)>
11.7

$$$$

----------
# experimental_system: human GPR40 (Homo sapiens, UniProt O14842)
# experiment_description: FLIPR intracellular calcium response in HEK-293 cells transiently expressing GPR40
# Format: cell-based
# Parameters: expressed in transfected cells; host or cells: HEK-293 (transient)
# measurement_context: FLIPR, GPR40 stimulation; second of up to 3 experiments; read-out: Mean pEC50 (converted)
# Excerpt: The Fluorometric Imaging Plate Reader (FLIPR™, Molecular Devices, UK) measures intracellular fluorescense in multi-well microplates. Where a GPCR couples to a calcium signalling pathway, the FLIPR system can be used with cells expressing the G-protein coupled receptor and containing calcium-sensitive fluorescent dyes, to monitor the intracellular calcium flux that occurs after activation of the G-coupled receptor. See, e.g., Kirk et al., J. Biomolecular Screening, 1:75 (1996). […]
Reported log10 of EC50 values are given for each entry in this list.
metric: log10 of EC50 (log10 of the value in µM)

>  <query_smiles>
CCCCCC/C=C\CCCCCCCC(=O)O

>  <metric>
log10 of EC50

>  <recorded_number>
1.19

$$$$
>  <query_smiles>
CCCCCCCCCCCCCCCC(=O)O

>  <metric>
log10 of EC50

>  <recorded_number>
0.49

$$$$
>  <query_smiles>
CCCCCCCCCCCCCCCCCCC(=O)O

>  <metric>
log10 of EC50

>  <recorded_number>
1.54

$$$$
>  <query_smiles>
CCCCCCCCCCCCCCCCCCCCCC(=O)O

>  <metric>
log10 of EC50

>  <recorded_number>
1.69

$$$$
>  <query_smiles>
CCCCCCCCCCCCCCC(=O)O

>  <metric>
log10 of EC50

>  <recorded_number>
0.64

$$$$
>  <query_smiles>
CCCCCCCCCCC(=O)O

>  <metric>
log10 of EC50

>  <recorded_number>
1.34

$$$$
>  <query_smiles>
CCCCCCC(=O)O

>  <metric>
log10 of EC50

>  <recorded_number>
1.78

$$$$
>  <query_smiles>
CCCCCCCCCCCCCCCCCCCCC(=O)O

>  <metric>
log10 of EC50

>  <recorded_number>
1.47

$$$$
>  <query_smiles>
CCCCCCCCCCCCCCCCCC(=O)O

>  <metric>
log10 of EC50

>  <recorded_number>
1.22

$$$$
>  <query_smiles>
CCCCCCCCCC(=O)O

>  <metric>
log10 of EC50

>  <recorded_number>
1.04

$$$$
>  <query_smiles>
CCCCC/C=C\C/C=C\C/C=C\C/C=C\CCCC(=O)O

>  <metric>
log10 of EC50

>  <recorded_number>
1.11

$$$$

----------
# experimental_system: human GPR40 (Homo sapiens, UniProt O14842)
# experiment_description: FLIPR intracellular calcium response in HEK-293 cells transiently expressing GPR40
# Format: cell-based
# Set-up: expressed in transfected cells; host or cells: HEK-293 (transient)
# measurement_context: FLIPR, GPR40 stimulation; Additional Fatty Acid Compounds; read-out: EC50
pEC50: −log10 of the molar value.

>  <compound>
CCCCC/C=C\C/C=C\CCCCCCCCCC(=O)O [Eicosa-11Z,14Z-dienoic acid]

>  <pEC50>
4.97

$$$$
>  <compound>
CCCCC/C=C\C/C=C\C/C=C\C/C=C\CCCC(=O)O

>  <pEC50>
5.04

$$$$
>  <compound>
CCCCCCCCCCC/C=C\C/C=C\CCCC(=O)O

>  <pEC50>
5.11

$$$$

----------
# experimental_system: human GPR40 (Homo sapiens)
# experiment_description: FLIPR intracellular calcium response in HEK-293 cells transiently expressing GPR40
# Assay type: cell-based
# Parameters: expressed in transfected cells; host or cells: HEK-293 (transient)
# measurement_context: EC50 uM, FLIPR, GPR40 stimulation; Additional Fatty Acid Compounds

>  <query_smiles>
CC/C=C\C/C=C\C/C=C\CCCCCCCC(=O)O

>  <unit_symbol>
µM

>  <EC50>
5.5

$$$$
>  <query_smiles>
CCCCC/C=C\C/C=C\CCCCCCCC(=O)O

>  <unit_symbol>
µM

>  <EC50>
9.5

$$$$

----------
# experimental_system: human GPR40 (Homo sapiens, UniProt O14842)
# experiment_description: FLIPR intracellular calcium response in HEK-293 cells transiently expressing GPR40
# Assay type: cell-based
# Parameters: expressed in transfected cells; host or cells: HEK-293 (transient)
# measurement_context: EC50 (M), FLIPR, GPR40 stimulation; Additional Fatty Acid Compounds
# EC50 per entry

>  <query_smiles>
CCCCC/C=C\C/C=C\CCCCCCCC(=O)O

>  <EC50 (M)>
9.54e-06

$$$$
>  <query_smiles>
CC/C=C\C/C=C\C/C=C\CCCCCCCC(=O)O

>  <EC50 (M)>
5.5e-06

$$$$

----------
# experimental_system: human GPR40 (Homo sapiens)
# experiment_description: FLIPR intracellular calcium response in HEK-293 cells transiently expressing GPR40
# Assay type: cell-based
# Set-up: expressed in transfected cells; host or cells: HEK-293 (transient)
# measurement_context: Mean pEC50, FLIPR, GPR40 stimulation; second of up to 3 experiments
pEC50: −log10 of the molar value.

>  <query_smiles>
CCCCCCCCC(=O)O

>  <pEC50>
4.63

$$$$
>  <query_smiles>
CC/C=C\C/C=C\C/C=C\CCCCCCCC(=O)O

>  <pEC50>
4.66

$$$$
>  <query_smiles>
CCCCCCCC(=O)O

>  <pEC50>
4.58

$$$$
>  <query_smiles>
CCCCC/C=C\C/C=C\CCCCCCCC(=O)O

>  <pEC50>
4.68

$$$$

----------
# experimental_system: human GPR40 (Homo sapiens)
# experiment_description: FLIPR intracellular calcium response in HEK-293 cells transiently expressing GPR40
# Type: cell-based
# Parameters: expressed in transfected cells; host or cells: HEK-293 (transient)
# measurement_context: FLIPR, GPR40 stimulation; third experiment; read-out: Mean pEC50 (converted)
Define the label as Yes when EC50 is strictly less than 7 µM and as No in all remaining cases.

>  <compound>
CCCCCCCCCCCCCCCCC(=O)O [Heptadecanoic acid]

>  <class_label>
No

$$$$
>  <compound>
CCCCCC/C=C\CCCCCCCC(=O)O [Palmitoleic acid]

>  <class_label>
No

$$$$
>  <compound>
CCCCCCCCCC(=O)O [Capric acid]

>  <class_label>
No

$$$$
>  <compound>
CCCCCCCCCCCCCCCCCC(=O)O [Stearic acid]

>  <class_label>
No

$$$$
>  <compound>
CCC=CCC=CCC=CCC=CCC=CC/C=C\CCC(=O)O [cis-4,7,10,13,16,19-Docosahexaenoic acid]

>  <class_label>
Yes

$$$$
>  <compound>
CCCCCCCCCCCC(=O)O [Lauric acid]

>  <class_label>
No

$$$$
>  <compound>
CCCCCCCCCCCCCCCC(=O)O [Palmitic acid]

>  <class_label>
Yes

$$$$
>  <compound>
CCCCCCCCCCCCCCC(=O)O [Pentadeconoic acid]

>  <class_label>
Yes

$$$$
>  <compound>
CCCCCCCCCCC(=O)O [Undecanoic acid]

>  <class_label>
No

$$$$
>  <compound>
CCCCC/C=C\C/C=C\C/C=C\C/C=C\CCCC(=O)O [Arachidonic acid]

>  <class_label>
No

$$$$

----------
# experimental_system: human GPR40 (Homo sapiens)
# experiment_description: FLIPR intracellular calcium response in HEK-293 cells transiently expressing GPR40
# Type: cell-based
# Set-up: expressed in transfected cells; host or cells: HEK-293 (transient)
# measurement_context: FLIPR, GPR40 stimulation; Additional Fatty Acid Compounds; read-out: EC50
# Excerpt: The Fluorometric Imaging Plate Reader (FLIPR™, Molecular Devices, UK) measures intracellular fluorescense in multi-well microplates. Where a GPCR couples to a calcium signalling pathway, the FLIPR system can be used with cells expressing the G-protein coupled receptor and containing calcium-sensitive fluorescent dyes, to monitor the intracellular calcium flux that occurs after activation of the G-coupled receptor. See, e.g., Kirk et al., J. Biomolecular Screening, 1:75 (1996). […]
The following compounds are shown together with reported EC50 values.

>  <compound>
CC/C=C\C/C=C\C/C=C\C/C=C\C/C=C\CCCCCC(=O)O

>  <EC50>
4.68 µM

$$$$
>  <compound>
CCCCCCCCC#CCC#CCC#CCCCC(=O)O

>  <EC50>
1.7 µM

$$$$
>  <compound>
CCC=CCC=CCC=CCC=CCC=CC/C=C\CCC(=O)O [cis-4,7,10,13,16,19-Docosahexaenoic acid]

>  <EC50>
1.62 µM

$$$$
>  <compound>
CC/C=C\C/C=C\C/C=C\CCCCCCCCCC(=O)O [Eicosa-11Z,14Z,17Z-trienoic acid]

>  <EC50>
11.2 µM

$$$$
>  <compound>
CC/C=C\C/C=C\C/C=C\CCCCCCCCCCCC(=O)O [Docosa-13Z,16Z,19Z-trienoic acid]

>  <EC50>
6.76 µM

$$$$
>  <compound>
CC/C=C\C/C=C\C/C=C\C/C=C\C/C=C\CCCC(=O)O [Eicosa-5Z,8Z,11Z,14Z,17Z-pentaenoic acid]

>  <EC50>
6.76 µM

$$$$
>  <compound>
CCCCC/C=C\C/C=C\C/C=C\CCCCCCC(=O)O

>  <EC50>
7.24 µM

$$$$
>  <compound>
C#CCCCCCCCCCCCCCCCC(=O)O

>  <EC50>
7.58 µM

$$$$
